TEST TARGET: aggrecanase-1 (Homo sapiens, UniProt O75173)
Sequence (O75173 213-837): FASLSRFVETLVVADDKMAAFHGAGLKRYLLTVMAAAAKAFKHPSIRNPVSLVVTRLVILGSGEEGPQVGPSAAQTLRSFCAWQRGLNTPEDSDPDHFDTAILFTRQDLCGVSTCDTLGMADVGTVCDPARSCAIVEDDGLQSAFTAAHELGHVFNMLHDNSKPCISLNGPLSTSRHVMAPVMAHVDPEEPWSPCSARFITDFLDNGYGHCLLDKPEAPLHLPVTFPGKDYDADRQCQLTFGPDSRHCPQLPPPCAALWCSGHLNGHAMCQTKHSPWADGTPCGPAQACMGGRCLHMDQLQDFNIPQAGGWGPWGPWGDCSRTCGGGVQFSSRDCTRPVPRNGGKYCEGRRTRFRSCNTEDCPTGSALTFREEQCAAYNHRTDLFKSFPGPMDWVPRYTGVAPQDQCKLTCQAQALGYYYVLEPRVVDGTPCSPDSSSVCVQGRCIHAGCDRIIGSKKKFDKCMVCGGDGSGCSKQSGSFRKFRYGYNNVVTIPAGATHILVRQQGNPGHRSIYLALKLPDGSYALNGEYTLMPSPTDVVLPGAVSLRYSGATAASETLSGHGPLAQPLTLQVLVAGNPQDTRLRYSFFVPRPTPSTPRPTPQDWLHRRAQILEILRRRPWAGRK
ASSAY INFO: Aggrecanase-1 inhibitory action (Particle Assay, GAG release from aggrecan-containing polyacrylamide particles)
Assay type: biochemical
CONDITION LABEL: aggrecanase-1 inhibitory action; read-out: IC50 AG1 (Experimental Example 1)
pIC50: −log10 of the molar value. Structures can show the parent of a compound that is named as a salt.
MEASURED PARAMETER: pIC50

As a guide, the following entries are already answered.
{"MOLECULE": "O=C(O)C1(NS(=O)(=O)c2ccc(-c3ccc(Cl)cc3)s2)CC1Cn1nnc2ccccc2c1=O (stereo not drawn)", "RESULT": "≤ 6.00"}
{"MOLECULE": "O=C(O)C1(NS(=O)(=O)N2CCN(c3nc4ccccc4s3)CC2)CC1c1ccccc1 (stereo not drawn)", "RESULT": "≤ 5.00"}
{"MOLECULE": "O=C(O)C1(NS(=O)(=O)c2ccc(-c3ccc(F)cc3)s2)CC1c1ccccc1 (stereo not drawn)", "RESULT": "> 6.00"}
{"MOLECULE": "O=C(NCC(F)(F)F)c1ccc(S(=O)(=O)NC2(C(=O)O)CC2c2ccccc2)s1 (stereo not drawn)", "RESULT": "≤ 5.00"}
{"MOLECULE": "CC(C)(C)OC(=O)N1CC=C(c2ccc(S(=O)(=O)N[C@@]3(C(=O)O)C[C@@H]3c3ccccc3)s2)CC1", "RESULT": "≤ 6.00"}
{"MOLECULE": "O=C(O)[C@]1(NS(=O)(=O)c2ccc(C3=CCNCC3)s2)C[C@@H]1c1ccccc1 [Example 2-2, hydrochloride]", "RESULT": "≤ 5.00"}
{"MOLECULE": "NC(=O)Nc1cccc(C2CC2(NS(=O)(=O)c2ccc(-c3ccc(Cl)cc3)s2)C(=O)O)c1 (stereo not drawn)", "RESULT": "> 6.00"}
{"MOLECULE": "O=C(O)C1(NS(=O)(=O)c2ccc(-c3ccc(Cl)cc3)s2)CC1c1cccc(OCc2cccnc2)c1 (stereo not drawn)", "RESULT": "> 7.00"}

Task: Report pIC50 on aggrecanase-1 (Homo sapiens, UniProt O75173) for this entry: O=C(O)C1(NS(=O)(=O)N2CCn3c(nnc3-c3ccccc3)C2)CC1c1ccccc1 (stereo not drawn)
Output: ≤ 5.00

Task: Report pIC50 on aggrecanase-1 (Homo sapiens, UniProt O75173) for this entry: O=C(O)C1(NS(=O)(=O)c2ccc(-c3ccc(Cl)cc3)s2)CC1c1cccc(OCc2ccccc2)c1 (stereo not drawn)
Output: > 6.00

Task: Report pIC50 on aggrecanase-1 (Homo sapiens, UniProt O75173) for this entry: O=C1CCCCN1c1ccc(S(=O)(=O)N[C@@]2(C(=O)O)C[C@@H]2c2ccccc2)s1
Output: ≤ 5.00

Task: Report pIC50 on aggrecanase-1 (Homo sapiens, UniProt O75173) for this entry: O=C(O)C1(NS(=O)(=O)N2CCN(c3ccc(C(F)(F)F)cc3)CC2)CC1c1ccccc1 (stereo not drawn)
Output: ≤ 6.00

Task: Report pIC50 on aggrecanase-1 (Homo sapiens, UniProt O75173) for this entry: O=C(O)[C@]1(NS(=O)(=O)c2ccc(-c3ccc(Cl)cc3)s2)C[C@@H]1c1ccccc1
Output: > 7.00
